Provenance of the data: PubChem BioAssay (NCI)

Test system: UACC-62 melanoma
Assay: NCI-60 one-dose screen, 48 h (100 = growth as untreated, 0 = no growth, -100 = all killed)
Conditions: 10 µM unless noted
This is part of a sample that, as a whole, favours compounds with a hit. Of some 83,000 tested, about 20% had one in any assay.
Assign Yes to entries whose growth meets or exceeds 30%; assign No to the rest.

Query: Could you please find out whether CNc1ccc(NC)c2c1C(=O)c1ccccc1C2=O has growth that meets 30% or exceeds it?
Result: Yes

Query: Determine whether this compound has growth no lower than 30%: Cc1ccc(C(=O)C2=C(O)C(=O)N(Cc3cccnc3)C2c2ccccc2F)o1 (stereo unspecified)
Result: Yes

Query: Say whether Cc1cccc(Cc2cnc(NC(=O)/C=C/c3ccco3)s2)c1 shows growth of 30% or more.
Result: No

Query: Hi, just wondering whether O=C(Nc1ccccc1Cl)Oc1ccc(-c2ccccc2)cc1 shows growth of 30% or higher.
Result: Yes

Query: Textbook exercise: given the entry COC(=O)c1ccc(CSc2nnc(-c3c(C)nc4ccc(C)cn34)o2)cc1 , state whether its growth is greater than or equal to 30%.
Result: Yes

Query: Does CN(C)CCC=C1c2ccccc2C(C)(C)c2ccccc21 have a reported growth of at least 30%?
Result: Yes

Query: Is it the case that Cc1ccc(Cl)cc1NC(=O)c1cc2ccccc2cc1O has growth reaching or exceeding 30%?
Result: No

Query: Does the compound COc1cc(C(=O)/C=C/c2c(-c3ccc(F)cc3)nc3sc(C)cn23)cc(OC)c1OC have recorded growth that is 30% or more?
Result: No

Query: Does the compound Cc1ccc(-c2cc(-c3cccnc3)[nH]c(=O)c2C#N)cc1 have recorded growth that is 30% or more?
Result: Yes

Query: Decide: growth of O=c1[nH]nc(-c2ccccc2)c2c(-c3ccccc3)onc12 >= 30%?
Result: Yes

Query: Decide: growth of c1ccc(Nc2nc(-c3ccccn3)cs2)nc1 >= 30%?
Result: No
